target: T1, human ROR1 on cells (full-length human ROR1 on huROR1-HEK293 cells; human ROR1 on A549 and HT-29 tumor cells) (human, UniProt Q01973 30-937); experiment: flow cytometry (FACS) on huROR1-HEK293 cells, anti-human IgG-Fc secondary antibody, MFI
T1 construct: whole, on cells; also called hROR1-HEK293T; A549 tumor cells
T1 sequence (Q01973 30-937): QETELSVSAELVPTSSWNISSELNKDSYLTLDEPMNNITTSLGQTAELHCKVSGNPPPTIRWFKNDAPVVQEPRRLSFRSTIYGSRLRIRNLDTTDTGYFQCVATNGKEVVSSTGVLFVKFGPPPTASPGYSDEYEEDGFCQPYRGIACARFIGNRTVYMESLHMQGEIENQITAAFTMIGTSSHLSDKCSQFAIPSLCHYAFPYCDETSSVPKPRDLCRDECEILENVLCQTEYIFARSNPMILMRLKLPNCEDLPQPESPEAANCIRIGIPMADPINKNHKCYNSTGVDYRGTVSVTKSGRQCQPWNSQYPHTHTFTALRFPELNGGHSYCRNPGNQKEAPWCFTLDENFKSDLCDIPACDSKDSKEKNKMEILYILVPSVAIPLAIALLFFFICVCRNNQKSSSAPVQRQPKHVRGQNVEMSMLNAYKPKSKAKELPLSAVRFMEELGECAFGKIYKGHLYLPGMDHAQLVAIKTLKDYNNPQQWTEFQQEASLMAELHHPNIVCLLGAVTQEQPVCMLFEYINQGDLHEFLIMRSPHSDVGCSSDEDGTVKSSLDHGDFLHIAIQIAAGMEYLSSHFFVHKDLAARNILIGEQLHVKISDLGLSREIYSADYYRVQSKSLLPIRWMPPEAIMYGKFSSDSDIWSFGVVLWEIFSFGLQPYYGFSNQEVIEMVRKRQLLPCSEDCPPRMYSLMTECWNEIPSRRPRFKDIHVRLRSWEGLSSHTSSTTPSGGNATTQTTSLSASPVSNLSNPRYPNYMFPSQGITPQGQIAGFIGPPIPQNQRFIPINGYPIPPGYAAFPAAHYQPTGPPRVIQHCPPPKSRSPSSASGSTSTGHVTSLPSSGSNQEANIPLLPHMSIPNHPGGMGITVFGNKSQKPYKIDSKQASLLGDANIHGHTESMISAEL
# EC50 (read off the curve) annotations

Solved entries (count: 2):
// query Give EC50 (read off the curve) for B32 (chimeric antibody) (antibody, human IgG1, kappa, V domains shown, ExpiCHO expression) VH: EVKLMESGGGLVKPGGSLKLSCAASGFAFSSYAMSWVRQTPDKRLEWVASINRDVTTYYPDSMKGRFTISRDNARNILYLQMSSLRSEDTAMYYCARGYYYGGGPYWHFDVWGAGTTVTVSS VL: DIQITQSPSSMYASLGERVTITCKASQDINSYLTWFQQKPGKSPKTLIYRANRLVDGVPSRFSGSGSGQDYSLTISSLEYEDMGIYYCLQFDEFPYTFGGGTKLEIKR
// result ~0.1 µg/mL

// query Quick one: give measured EC50 (read off the curve) for M71 (chimeric antibody) (antibody, human IgG1, kappa, V domains shown, ExpiCHO expression) VH: EVMLVESGGGLVKPGGSLKLSCAASGFTFSRYAMSWVRQTPEKRLEWVASINRGGTTYYPDSVKGRFTISRDNARDILYLQMSSLRSEDTAIYYCARDYYYGSSLYNGMDFWGQGTSVIVSS VL: DIQMTQSPSSMYASLGERVTITCKASQDINSYLSWFQQKPGKSPKTLIYRANRLVDGVPSRFSGSGSGQDYSLTISSLESEDMGIYYCLQFDEFPYTFGGGTKLEIKR
// result ~0.08 µg/mL

New cases:
// query Give me measured EC50 (read off the curve), please, for this binder: C38 (chimeric antibody) (antibody, human IgG1, kappa, V domains shown, ExpiCHO expression) VH: EVMLVESGGGLVRPGGSLKLSCAASGFTFSSYAMSWVRQTPDKRLEWVASINRDVTTYYPDSVKGRFTISRDNARNILYLQMSSLRSEDTAMYYCARDYYYGSSLYYGMDYWGQGTSVTVSS VL: DIQMTQSPSSMHASLGERVTITCKASQDINNYVSWFQQKPGKSPKTLIYRANRLVDGVPSRFSGSGSGQDYSFTISSLEYEDMGIYYCLQFDEFPYTFGGGTKLEIKR
// result ~0.1 µg/mL
